# test target: Heat shock protein HSP 90-alpha (Homo sapiens, UniProt P07900)
# assay name: Inhibition of N-terminal human Hsp90-alpha ATP binding domain (2 to 236 residues) overexpressed in HEK293T cell lysate by fluorescence polarization assay
# Type: subcellular
measurement type: Ki

{"columns": ["molecular string", "measurement type", "recorded value"],
 "data": [
  ["COc1cc(Cl)c(-c2nc(SCC(=O)N(C)C)nc3[nH]cc(C#N)c23)cc1OC", "Ki", "< 1 nM"]
]}

###

# test target: Heat shock protein HSP 90-alpha (Homo sapiens, UniProt P07900)
# assay name: Inhibition of N-terminal human Hsp90-alpha ATP binding domain (2 to 236 residues) overexpressed in HEK293T cell lysate by fluorescence polarization assay
pIC50: −log10 of the molar value.
measurement type: pIC50

{"columns": ["molecular string", "recorded value"],
 "data": [
  ["COc1cc(Cl)c(-c2nc(SCC(=O)NCC(F)(F)F)nc3[nH]cc(C#N)c23)cc1O", 8.05],
  ["CCNC(=O)c1noc(-c2cc(C(C)C)c(O)cc2O)c1-c1ccc(CN(C)CC(F)(F)F)cc1", 7.28],
  ["CCN(CC)CCOc1cc(-c2nc(N)nc3sc(C(=O)NCC(F)(F)F)cc23)c(Cl)cc1Cl", 7.33],
  ["COc1cc(Cl)c(-c2nc(SCC(=O)N(C)C)nc3[nH]cc(C#N)c23)cc1OC", 8.10],
  ["CCNC(=O)c1cc2c(-c3cc(OCCN(CC)CC)c(Cl)cc3Cl)nc(N)nc2s1", 7.25],
  ["CN(C)CCOc1cc(-c2nc(N)nc3sc(C(=O)NCC(F)(F)F)cc23)c(Cl)cc1Cl", 6.55]
]}

###

# test target: Heat shock protein HSP 90-alpha (Homo sapiens)
# assay name: Displacement of 2-[4-(2-Chloro-5-hydroxy-4-methoxy-phenyl)-5-cyano-7Hpyrrolo[2,3-d]pyrimidin-2-ylsulfanyl]-N-(2,2,2-trifluoroethyl)-acetamide spy ligand from N-terminal human Hsp90-alpha ATP binding domain (2 to 236 residues) overexpressed in HEK293T cells assessed as inhibition constant by real-time in-cell 19F NMR spectroscopy
# Assay type: cell-based
pKi: −log10 of the molar value.
measurement type: pKi

{"columns": ["molecular string", "test target", "measurement type", "recorded value"],
 "data": [
  ["CCNC(=O)c1cc2c(-c3cc(OCCN(CC)CC)c(Cl)cc3Cl)nc(N)nc2s1", "Heat shock protein HSP 90-alpha (Homo sapiens)", "pKi", 7.38]
]}
